Origin of measurements: PubChem BioAssay AID624305

- assay-explanation: qHTS assay for re-activators of p53 using a Luc reporter: Hit Validation; further: nearly all actives have a fitted effect of over 75% in size; on activation: 0% is about no effect
- measurement-setup: p53-responsive luciferase reporter cells, luminescence, H1299 line expressing heat-sensitive Ala138Val p53; series mostly up to 46.1 µM
Inconclusive results are not listed. Calls of active or inactive are those of the source. The call rests on the fitted dose curve; in most records, active means well fitted activation curve with a large enough effect; inconclusive means small, poorly fitted or top-dose-only effect; inactive means no such curve, though single readings can be large or run the other way.
Outcome (select one): 1 = active, -1 = inactive

Q. For COc1ccc2nc(NC(=O)Nc3ccccc3OC)sc2c1 , what call appears in the results of this test?
A. 1

Q. Quick one: Cc1cccc(NC(=O)/C=C/c2ccc(Cl)cc2)n1
A. 1

Q. Quick one: Cc1cc(C(=O)COC(=O)c2cccc(O)c2)c(C)n1C1CC1
A. 1

Q. Quick one: C1=C(CCNc2ncnc3nc[nH]c23)CCCC1
A. 1

Please examine the following record next.
Q. For CC(C)(C)c1ccc(NC(=O)COC(=O)c2ccc(NS(=O)(=O)c3ccc(F)c(F)c3)cc2)cc1 , what call appears in the results of this test?
A. -1
